# Tested on: HOP-62 multicell spheroids with HUVEC/MSC, viability
# ASSAY_DETAILS: Anticancer human tumor HOP-62 cell line growth inhibition [KRAS2];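 further: viability read after a week of compound exposure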;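 on viability, T/C: 100% = DMSO vehicle-treated spheroids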
# TEST_SETTINGS: second compound 0.1 µM; first compound 0.316 µM; stronger effect = lower value
PROPERTY: viability, T/C (%)

1) CCNC(=O)CC1N=C(c2ccc(Cl)cc2)c2cc(OC)ccc2-n2c(C)nnc21 (stereo not given) + COc1cc2nc(C)nc(NC(C)c3cc(N)cc(C(F)(F)F)c3)c2cc1OC1CCOC1; 44.3
2) CCN1CCN(Cc2ccc(Nc3ncc(F)c(-c4cc(F)c5nc(C)n(C(C)C)c5c4)n3)nc2)CC1 + CNCc1ccccc1-c1csc(C(C)Nc2nc(C)nc3cc(OC)c(OC)cc23)c1; 72.6
3) COc1cc(Nc2ncc3c(n2)-c2ccc(Cl)cc2C(c2c(F)cccc2OC)=NC3)ccc1C(=O)O + CC1OCC2(CCN(c3cnc(Sc4ccnc(N)c4Cl)c(N)n3)CC2)C1N; 45.7
4) CC(=O)OC12COC1CC(O)C1(C)C(=O)C(O)C3=C(C)C(OC(=O)C(O)C(NC(=O)OC(C)(C)C)c4ccccc4)CC(O)(C(OC(=O)c4ccccc4)C21)C3(C)C (stereo not given) + COc1cc2nc(C)nc(NC(C)c3cc(N)cc(C(F)(F)F)c3)c2cc1OC1CCOC1; 32.7
5) Cn1nccc1Nc1nccc(-c2cc3c(s2)C(C)(C)N(CCN2CCOCC2)C3=O)n1 + CC1OCC2(CCN(c3cnc(Sc4ccnc(N)c4Cl)c(N)n3)CC2)C1N; 70

----------
# Tested on: HOP-62 multicell spheroids with HUVEC/MSC, viability
# ASSAY_DETAILS: Anticancer human tumor HOP-62 cell line growth inhibition [KRAS2];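 further: viability read after a week of compound exposure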
# TEST_SETTINGS: curve of first compound; second compound 1 µM
PROPERTY: IC50

1. CC1(C)CCC(CN2CCN(c3ccc(C(=O)NS(=O)(=O)c4ccc(NCC5CCOCC5)c([N+](=O)[O-])c4)c(Oc4cnc5[nH]ccc5c4)c3)CC2)=C(c2ccc(Cl)cc2)C1 + C=CC(=O)N1CCN(c2nc(OCC3CCCN3C)nc3c2CCN(c2cccc4cccc(C)c24)C3)CC1CC#N; < 31.6 nM
2. CC1(C)CCC(CN2CCN(c3ccc(C(=O)NS(=O)(=O)c4ccc(NCC5CCOCC5)c([N+](=O)[O-])c4)c(Oc4cnc5[nH]ccc5c4)c3)CC2)=C(c2ccc(Cl)cc2)C1 + C=CC(=O)N1CCN(c2nc(=O)n(-c3c(C)ccnc3C(C)C)c3nc(-c4c(O)cccc4F)c(F)cc23)C(C)C1; 2010 nM
3. CC1(C)CCC(CN2CCN(c3ccc(C(=O)NS(=O)(=O)c4ccc(NCC5CCOCC5)c([N+](=O)[O-])c4)c(Oc4cnc5[nH]ccc5c4)c3)CC2)=C(c2ccc(Cl)cc2)C1 + COc1cc2nc(C)nc(NC(C)c3cc(N)cc(C(F)(F)F)c3)c2cc1OC1CCOC1; 3430 nM
4. Cn1ncnc1[C@H]1c2n[nH]c(=O)c3cc(F)cc(c23)N[C@@H]1c1ccc(F)cc1 + C=CC(=O)N1CCN(c2nc(=O)n(-c3c(C)ccnc3C(C)C)c3nc(-c4c(O)cccc4F)c(F)cc23)C(C)C1; > 100 nM
5. CN(C)C/C=C/C(=O)Nc1cc2c(Nc3ccc(F)c(Cl)c3)ncnc2cc1O[C@H]1CCOC1 + CC1OCC2(CCN(c3cnc(Sc4ccnc(N)c4Cl)c(N)n3)CC2)C1N; > 100 nM
6. CC(C)n1nc(-c2ccc3oc(N)nc3c2)c2c(N)ncnc21 + CC1OCC2(CCN(c3cnc(Sc4ccnc(N)c4Cl)c(N)n3)CC2)C1N; 0.392 nM
7. CC1OCC2(CCN(c3cnc(Sc4ccnc(N)c4Cl)c(N)n3)CC2)C1N (centres undefined) + C=CC(=O)N1CCN(c2nc(OCC3CCCN3C)nc3c2CCN(c2cccc4cccc(C)c24)C3)CC1CC#N; < 31.6 nM
8. CC(=O)OC12COC1CC(O)C1(C)C(=O)C(O)C3=C(C)C(OC(=O)C(O)C(NC(=O)OC(C)(C)C)c4ccccc4)CC(O)(C(OC(=O)c4ccccc4)C21)C3(C)C (centres undefined) + CC1OCC2(CCN(c3cnc(Sc4ccnc(N)c4Cl)c(N)n3)CC2)C1N; < 10 nM
9. CC(=O)OC12COC1CC(O)C1(C)C(=O)C(O)C3=C(C)C(OC(=O)C(O)C(NC(=O)OC(C)(C)C)c4ccccc4)CC(O)(C(OC(=O)c4ccccc4)C21)C3(C)C (centres undefined) + COc1cc2nc(C)nc(NC(C)c3cc(N)cc(C(F)(F)F)c3)c2cc1OC1CCOC1; < 10 nM

----------
# Tested on: HOP-62 multicell spheroids with HUVEC/MSC, viability
# ASSAY_DETAILS: Anticancer human tumor HOP-62 cell line growth inhibition [KRAS2]; active = viability on the fitted dose curve at most 10% of control; inactive = the rest;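 further: viability read after a week of compound exposure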
# TEST_SETTINGS: second compound 0.1 µM; first compound 0.1 µM
Classes used: yes (1) (active), no (0) (inactive)

1) CCN1CCN(Cc2ccc(Nc3ncc(F)c(-c4cc(F)c5nc(C)n(C(C)C)c5c4)n3)nc2)CC1 + COc1cc2nc(C)nc(NC(C)c3cc(N)cc(C(F)(F)F)c3)c2cc1OC1CCOC1; no (0)
2) CC1COCCN1c1cc(-c2ccnn2C)c2ccnc(-c3ccn[nH]3)c2n1 (stereo unspecified) + CC1OCC2(CCN(c3cnc(Sc4ccnc(N)c4Cl)c(N)n3)CC2)C1N; no (0)
3) CCN1CCN(Cc2ccc(Nc3ncc(F)c(-c4cc(F)c5nc(C)n(C(C)C)c5c4)n3)nc2)CC1 + C=CC(=O)N1CCN(c2nc(=O)n(-c3c(C)ccnc3C(C)C)c3nc(-c4c(O)cccc4F)c(F)cc23)C(C)C1; no (0)
4) O=C(c1cc(Cc2n[nH]c(=O)c3ccccc23)ccc1F)N1CCN(C(=O)C2CC2)CC1 + CNCc1ccccc1-c1csc(C(C)Nc2nc(C)nc3cc(OC)c(OC)cc23)c1; no (0)
5) COC(=O)c1ccc2c(C(=Nc3ccc(N(C)C(=O)CN4CCN(C)CC4)cc3)c3ccccc3)c(O)[nH]c2c1 + CC1OCC2(CCN(c3cnc(Sc4ccnc(N)c4Cl)c(N)n3)CC2)C1N; no (0)
6) CC(C)n1nc(-c2ccc3oc(N)nc3c2)c2c(N)ncnc21 + C=CC(=O)N1CCN(c2nc(OCC3CCCN3C)nc3c2CCN(c2cccc4cccc(C)c24)C3)CC1CC#N; yes (1)

----------
# Tested on: HOP-62 multicell spheroids with HUVEC/MSC, viability
# ASSAY_DETAILS: Anticancer human tumor HOP-62 cell line growth inhibition [KRAS2];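 further: viability read after a week of compound exposure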;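 on viability, T/C: 100% = DMSO vehicle-treated spheroids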
# TEST_SETTINGS: second compound 0.316 µM; first compound 0.01 µM; stronger effect = lower value
Labels assigned by viability, T/C range: lower (below 30%), middle (30% to below 90%), upper (90% or more)

1) CC(C)n1nc(-c2ccc3oc(N)nc3c2)c2c(N)ncnc21 + C=CC(=O)N1CCN(c2nc(OCC3CCCN3C)nc3c2CCN(c2cccc4cccc(C)c24)C3)CC1CC#N; lower
2) CN(C)C/C=C/C(=O)Nc1cc2c(Nc3ccc(F)c(Cl)c3)ncnc2cc1O[C@H]1CCOC1 + CNCc1ccccc1-c1csc(C(C)Nc2nc(C)nc3cc(OC)c(OC)cc23)c1; upper
3) CC(=O)OC12COC1CC(O)C1(C)C(=O)C(O)C3=C(C)C(OC(=O)C(O)C(NC(=O)OC(C)(C)C)c4ccccc4)CC(O)(C(OC(=O)c4ccccc4)C21)C3(C)C (stereo unspecified) + CC1OCC2(CCN(c3cnc(Sc4ccnc(N)c4Cl)c(N)n3)CC2)C1N; middle
4) CN(C)C/C=C/C(=O)Nc1cc2c(Nc3ccc(F)c(Cl)c3)ncnc2cc1O[C@H]1CCOC1 + COc1cc2nc(C)nc(NC(C)c3cc(N)cc(C(F)(F)F)c3)c2cc1OC1CCOC1; upper
5) CCN1CCN(Cc2ccc(Nc3ncc(F)c(-c4cc(F)c5nc(C)n(C(C)C)c5c4)n3)nc2)CC1 + CC1OCC2(CCN(c3cnc(Sc4ccnc(N)c4Cl)c(N)n3)CC2)C1N; middle
6) CC(C)n1nc(-c2ccc3oc(N)nc3c2)c2c(N)ncnc21 + CC1OCC2(CCN(c3cnc(Sc4ccnc(N)c4Cl)c(N)n3)CC2)C1N; lower
7) CC1COCCN1c1cc(-c2ccnn2C)c2ccnc(-c3ccn[nH]3)c2n1 (stereo unspecified) + COc1cc2nc(C)nc(NC(C)c3cc(N)cc(C(F)(F)F)c3)c2cc1OC1CCOC1; upper
8) CCN1CCN(Cc2ccc(Nc3ncc(F)c(-c4cc(F)c5nc(C)n(C(C)C)c5c4)n3)nc2)CC1 + COc1cc2nc(C)nc(NC(C)c3cc(N)cc(C(F)(F)F)c3)c2cc1OC1CCOC1; upper
9) CC(=O)Nc1cccc(-n2c(=O)n(C3CC3)c(=O)c3c(Nc4ccc(I)cc4F)n(C)c(=O)c(C)c32)c1 + COc1cc2nc(C)nc(NC(C)c3cc(N)cc(C(F)(F)F)c3)c2cc1OC1CCOC1; lower
10) CCN1CCN(Cc2ccc(Nc3ncc(F)c(-c4cc(F)c5nc(C)n(C(C)C)c5c4)n3)nc2)CC1 + C=CC(=O)N1CCN(c2nc(=O)n(-c3c(C)ccnc3C(C)C)c3nc(-c4c(O)cccc4F)c(F)cc23)C(C)C1; middle
11) CC1COCCN1c1cc(-c2ccnn2C)c2ccnc(-c3ccn[nH]3)c2n1 (stereo unspecified) + C=CC(=O)N1CCN(c2nc(OCC3CCCN3C)nc3c2CCN(c2cccc4cccc(C)c24)C3)CC1CC#N; middle

Values were extracted from PubChem BioAssay AID1963858.
